Molecular target: E. coli RNase P holoenzyme (M1 P RNA + rnpA protein)
Sequence: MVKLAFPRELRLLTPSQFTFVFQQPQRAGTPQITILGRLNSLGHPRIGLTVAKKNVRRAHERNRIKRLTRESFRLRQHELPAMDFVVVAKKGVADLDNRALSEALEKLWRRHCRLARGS
Assay: relative kcat/Km (krel) vs genomic leader AAAGAU (relative (reference leader = 1)); higher = faster RNase P cleavage
Conditions: fraction of substrate reacted: ~13-16% (15.68% repeat 1, 13.17% repeat 2)
The full ranking holds about 4,100 sequences; the median of “relative kcat/Km (krel) vs genomic leader AAAGAU” is about 1.7, and the highest 2% start at about 6.5. The sample holds the highest values, similar sequences and a random draw of the others, so the mix is not that of the screen.
What relative kcat/Km was measured for each of the following?
Please give the numeric answer without any surrounding text.

Give the reported value of relative kcat/Km for this record: `GACTAC`
6.14

Provide one value: measured relative kcat/Km of `ACAGAG`
0.878

Dear colleague, please send me the reported relative kcat/Km for `ACCCAA` when you can.
2.69

Note down relative kcat/Km recorded for `TCCAAT`
4.14

For the sequence `CCTCCT` , give its reported relative kcat/Km.
1.23

Fill in relative kcat/Km for record `TGCTTT`
2.23

Determine from records and report relative kcat/Km for `TGCCGA`
2.99

Note down relative kcat/Km recorded for `TGAAAG`
1.15

Please give measured relative kcat/Km of the following entry: `ATTTAT`
4.84

Identify measured relative kcat/Km corresponding to `TACTAC`
6.73

Supply measured relative kcat/Km of `TCGGAA` in your reply.
1.23

Could you please provide reported relative kcat/Km for `GACAGA` ? Thanks!
4.59

Name the recorded relative kcat/Km of the sequence listed here: `TTCAAT`
5.53

Identify measured relative kcat/Km corresponding to `ACCCAC`
3.71

Respond only with relative kcat/Km recorded for `CGCAAT`
2.82

Output relative kcat/Km of `TGTATC`
2.43

Identify measured relative kcat/Km corresponding to `CACTGC`
4.53

Please give measured relative kcat/Km of the following entry: `TCTTCA`
1.88

Supply relative kcat/Km value. Item: `TGCAAT`
1.18

Identify measured relative kcat/Km corresponding to `ATCTTG`
1.15

Dear colleague, please send me the reported relative kcat/Km for `TCACGC` when you can.
3

State, in one line, measured relative kcat/Km of `CACCAC`
3.81

Please list relative kcat/Km recorded for the sequence `ACCGTA`
2.54

For the sequence `GGCAAC` , give its reported relative kcat/Km.
2.29

Read the entry `CCTAAA` and write its reported relative kcat/Km.
2.31

Supply recorded relative kcat/Km for `CTCCCC` here.
3.34

Specify reported relative kcat/Km for the sequence shown: `TCCTGA`
4.19

Output measured relative kcat/Km for this item: `GGCCGA`
2.42

Give recorded relative kcat/Km. `AGCAGC`
2.28

Supply recorded relative kcat/Km for `CACTGA` here.
3.71

For the sequence `GCCCAT` , give its measured relative kcat/Km value.
3.36

Fill in reported relative kcat/Km for this entry: `GTCCGA`
5.56

In one line, give reported relative kcat/Km of the entry `TCCAGA` .
4.62

Recall and state the measured relative kcat/Km for `ACCTAG` .
2.93

Item `GCTGCC` : provide relative kcat/Km
0.461

Please give measured relative kcat/Km of the following entry: `CACTAG`
3.2

Note down relative kcat/Km recorded for `TCCTGG`
0.715

Supply reported relative kcat/Km belonging to this sequence: `CGCTAT`
4.44

Specify measured relative kcat/Km for `AACGCG` .
0.857

Dear colleague, please send me the reported relative kcat/Km for `TGCGAG` when you can.
0.318

Fill in reported relative kcat/Km for this entry: `TTCAAA`
6.52

Provide relative kcat/Km value for the following sequence: `GCCAAC`
1.28

Recall and state the measured relative kcat/Km for `TCGCAT` .
3.11

Hello, please tell me recorded relative kcat/Km for this one: `GACTAT`
5.68

Name the recorded relative kcat/Km of the sequence listed here: `AACTAC`
4.66

Name the recorded relative kcat/Km of the item `TCCAGC` in your answer.
4.83

Give reported relative kcat/Km value for `AGCTTT`
2.71

Given the sequence `CCCAAT` , write its reported relative kcat/Km.
3.48

Please give the documented relative kcat/Km of `CAACCC`
1.26

Provide one value: measured relative kcat/Km of `GGCTTA`
1.39

Could you please provide reported relative kcat/Km for `GTCTTC` ? Thanks!
5.61

State its relative kcat/Km for this sequence: `ACCTAA`
4.49

State, in one line, measured relative kcat/Km of `TTCCGC`
5.35

Indicate its recorded relative kcat/Km; the sequence in question is `CCCAAC`
2.15

Please supply the value of reported relative kcat/Km for the item `TCCAAC`
4.11

Using known records, supply relative kcat/Km for `CCCCCT`
1.25

Tell me measured relative kcat/Km for `ACCTCA` please.
3.24

Let me know recorded relative kcat/Km for `TCCAAG` , thanks.
1.77

Name the recorded relative kcat/Km of the sequence listed here: `ACGCAC`
2.12

State its relative kcat/Km: `TTCCGG`
0.738

# return recorded relative kcat/Km for input `ATCAAC`
4.05

Find the measured relative kcat/Km of `CGTATA` and report it.
2.75

Indicate its recorded relative kcat/Km; the sequence in question is `CCCTAT`
5.47

Return value of relative kcat/Km for input `TTCCGA` , no commentary.
6.28

Specify relative kcat/Km for `TTCTTT` and stop.
6.36

Return relative kcat/Km (reported value) for this sequence: `AACTAT`
4.44

Determine its reported relative kcat/Km: `GGACAA`
1.34

Quickly give me recorded relative kcat/Km for `TCCCAC`
5.53

Annotate the sequence `CACTGT` with its measured relative kcat/Km.
0.947

Given the sequence `TTTAGA` , write its reported relative kcat/Km.
3.74

Give the reported relative kcat/Km for this sequence. `GACTTC`
4.38

Read off the recorded relative kcat/Km for `GCTATC`
0.842

Give recorded relative kcat/Km. `CTCCAC`
5.88

Fill in relative kcat/Km for record `TGCAAC`
1.45

Look up relative kcat/Km of `GCCAAG` and report it.
0.757

Tell me its relative kcat/Km given `CCCTAA` as the entry.
4.41

# return recorded relative kcat/Km for input `CCGGTA`
1.25

Give relative kcat/Km for `TTCAAC`
6.12

Please list relative kcat/Km recorded for the sequence `ATCCGC`
4.36

Identify measured relative kcat/Km corresponding to `GGAAAC`
1.61

Could you please provide reported relative kcat/Km for `TACGTT` ? Thanks!
1.95

Answer with reported relative kcat/Km of `ATCAAT`
4.2

Return reported relative kcat/Km. Input sequence: `CACAGA`
4.77

Respond only with relative kcat/Km recorded for `ACATCT`
3.25

Let me know recorded relative kcat/Km for `TCCCAT` , thanks.
5.74

Consider the sequence `CTCCAA` and give its recorded relative kcat/Km.
4.62

Kindly indicate its recorded relative kcat/Km. Item: `GCCTTA`
3.35

Identify measured relative kcat/Km associated with `TGCCAT`
2.89

Kindly indicate its recorded relative kcat/Km. Item: `CCCTAG`
2.55

Annotate the sequence `CGCTAC` with its measured relative kcat/Km.
4.78

Tell me relative kcat/Km reported for `CTTAAC`
2.52

Query relative kcat/Km for `GGGATA`
0.415

Output relative kcat/Km of `TACTGC`
4.1

Provide relative kcat/Km value for the following sequence: `TATGCC`
1.72

Give me measured relative kcat/Km, please, for this sequence: `TCCTAG`
3.4

Return relative kcat/Km (reported value) for this sequence: `CGACCC`
0.175

Entry `AATGAA` needs its relative kcat/Km filled in; supply it.
2.14
